These measurements were taken from a melting point compilation (Tetko et al.; mined from patent text by program, amines drawn as free bases though some values may be those of a salt).

measured metric: melting point

compound=CC(C)(C)n1nnc(Cc2ccc(Br)cc2)n1 measured_metric="melting point" reading="69 to 70 °C"
compound="CCOC(=O)C(C)c1ccc2c(c1)C(=O)c1ccccc1CS2 (stereo unspecified)" measured_metric="melting point" reading="91 to 93 °C"
compound=CC(=O)n1cc(-c2ccccc2)c(O)n1 measured_metric="melting point" reading="215 °C"
compound="CCCN(CCC)CC1CCCCN1CCNC(=O)N1c2ccccc2C(=O)Nc2cccc(Cl)c21 (stereo unspecified)" measured_metric="melting point" reading="71 to 78 °C"
compound="[N-]=[N+]=NC1CC(n2cc(I)c(=O)[nH]c2=O)OC1CO (stereo unspecified)" measured_metric="melting point" reading="126 to 130 °C"
compound=CCC1(c2cn(-c3c(Cl)cc(C(F)(F)F)cc3Cl)nc2C#N)CC1 measured_metric="melting point" reading="118 to 119 °C"
